Values compiled from patent US11352350B2.

Recorded DC50 values for a group of compounds are listed next.
- SYSTEM: IRAK4 (Homo sapiens (Human))
- Sequence (Q9NWZ3 whole entry): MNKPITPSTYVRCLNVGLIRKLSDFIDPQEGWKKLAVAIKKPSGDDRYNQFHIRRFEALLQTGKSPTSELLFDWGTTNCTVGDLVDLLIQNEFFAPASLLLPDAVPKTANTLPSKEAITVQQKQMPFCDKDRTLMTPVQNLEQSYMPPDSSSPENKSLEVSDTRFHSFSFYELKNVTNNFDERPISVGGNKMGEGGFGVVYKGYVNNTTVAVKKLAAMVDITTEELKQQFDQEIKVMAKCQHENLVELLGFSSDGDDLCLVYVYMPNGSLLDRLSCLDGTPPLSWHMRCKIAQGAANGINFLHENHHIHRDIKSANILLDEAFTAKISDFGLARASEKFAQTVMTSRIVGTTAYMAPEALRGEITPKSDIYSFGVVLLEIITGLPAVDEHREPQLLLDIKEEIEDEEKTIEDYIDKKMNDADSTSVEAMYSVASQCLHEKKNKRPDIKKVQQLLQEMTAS
- METHOD_NOTES: IRAK4 MSD degradation in OCI-LY10
- Format: cell-based
- CONDITION_PARAMETERS: OCI-LY10, 4 hrs, MSD; read-out: IRAK4 MSD degradation in OCI-LY10 at 4 hrs: Average external-Abs DC50

# example entries with known answers
CN(CCOCCOCCCc1cccc2c1n(C)c(=O)n2C1CCC(=O)NC1=O)C(=O)[C@H]1CC[C@H](n2cc(NC(=O)c3coc(-c4ccnc(NCC5CC5)c4)n3)c(C(F)F)n2)CC1 (some centres unmarked) :: < 10 nM
CN(CCN1CCO[C@H](CCNc2cccc3c2C(=O)N(C2CCC(=O)NC2=O)C3=O)C1)C[C@H]1CC[C@H](n2cc(NC(=O)c3cnn4ccc(N5C[C@H]6C[C@@H]5CO6)nc34)c(C(F)F)n2)CC1 (some centres unmarked) :: 100 to 1000 nM
Cn1c(=O)n(C2CCC(=O)NC2=O)c2cccc(CN3CCC4(CC3)CN(C[C@H]3CC[C@H](n5cc(NC(=O)c6coc(-c7ccnc(NCC8CC8)c7)n6)c(C(F)F)n5)CC3)C4)c21 (some centres unmarked) :: < 10 nM
CN(CCOCCNCc1ccc2c(c1)n(C)c(=O)n2C1CCC(=O)NC1=O)C[C@H]1CC[C@H](n2cc(NC(=O)c3coc(-c4ccnc(NCC5CC5)c4)n3)c(C(F)F)n2)CC1 (some centres unmarked) :: < 10 nM

What measured DC50 goes with CC([C@H]1CC[C@H](n2cc(NC(=O)c3coc(-c4ccnc(NCC5CC5)c4)n3)c(C(F)F)n2)CC1)N1CCC(OCCCc2cccc3c2n(C)c(=O)n3C2CCC(=O)NC2=O)CC1 (some centres unmarked) ?
10 to 100 nM

What measured DC50 goes with CN(CCCOCCCN)C[C@H]1CC[C@H](n2cc(NC(=O)c3cnn4ccc(N5CCOCC5)nc34)c(C(F)F)n2)CC1 ?
> 1000 nM

What measured DC50 goes with CN(C[C@H]1CC[C@H](n2cc(NC(=O)c3cnn4ccc(N5CCOCC5)nc34)c(C(F)F)n2)CC1)C1CCN(CCc2cccc3c2n(C)c(=O)n3C2CCC(=O)NC2=O)CC1 (some centres unmarked) ?
< 10 nM

What measured DC50 goes with Cn1c(=O)n(C2CCC(=O)NC2=O)c2cccc(CCC(=O)N3CC4(CCN(C[C@H]5CC[C@H](n6cc(NC(=O)c7cnn8ccc(N9C[C@H]%10C[C@@H]9CO%10)nc78)c(C(F)F)n6)CC5)CC4)C3)c21 (some centres unmarked) ?
10 to 100 nM

What measured DC50 goes with CC[C@@H]1[C@H](F)C(=O)N[C@@H]1COc1ncc(C#C[C@H]2CC[C@H](CN(C)CCCOCCCc3ccc4c(c3)n(C)c(=O)n4C3CCC(=O)NC3=O)CC2)c2cc(C(N)=O)c(OC)cc12 (some centres unmarked) ?
10 to 100 nM

What measured DC50 goes with CN1C(=O)C(C2CCC(=O)NC2=O)c2cccc(CCCOC3CCN(C[C@H]4CC[C@H](n5cc(NC(=O)c6cnn7ccc(N8CCC(C)(O)CC8)nc67)c(C(F)F)n5)CC4)CC3)c21 (some centres unmarked) ?
10 to 100 nM

What measured DC50 goes with Cn1c(=O)n(C2CCC(=O)NC2=O)c2ccc(CN3CCC(CCCN4CCC(n5cc(NC(=O)c6coc(-c7ccnc(NCC8CC8)c7)n6)c(C(F)F)n5)CC4)CC3)cc21 (centres unmarked) ?
10 to 100 nM
